Data provenance: patent US11753408B2

- assay_info: Solubility at pH 7.4
- Assay type: physicochemical
// reported Sol @ pH 7.4 per item
metric: Sol @ pH 7.4 (ug/mL)

> print(dat)
                                   molecule        metric  comparative.sign  test.value
1  O=C(c1ccc(-n2c(=O)ccc3c[n+]([O-])c4ccc(-c5ccc(Cl)cc5)cc4c32)cc1)N1CCOCC1  Sol @ pH 7.4                 =        21.8
2  O=C(NC1CC1c1ccccc1)c1ccc(-n2c(=O)ccc3cnc4ccc(-c5ccc(Cl)cc5)cc4c32)cc1 (stereo not shown)  Sol @ pH 7.4                 <         1.0
3  CNCc1cc(-n2c(=O)ccc3cnc4ccc(-c5ccc(Cl)cc5)cc4c32)ccc1C(=O)N1CCOCC1  Sol @ pH 7.4                 =         7.2
4  O=C(c1ccc(-n2c(=O)ccc3cnc4ccc(-c5ccc(OC6CCNCC6)cc5)cc4c32)cc1)N1CCOCC1  Sol @ pH 7.4                 =         6.3

* * *

Documented mTOR across a set of compounds
- test_target: UniProt P42345
- assay_info: mTOR activity (no method described)
- Format: biochemical
metric: mTOR

> print(dat)
                                   compound  metric  test.value
1  Nc1cc(-c2ccc3ncc4ccc(=O)n(-c5ccc(C(=O)N6CCOCC6)cc5)c4c3c2)ccc1Cl    mTOR     1.37 µM
2  CNCc1ccc(-c2ccc3ncc4ccc(=O)n(-c5ccc(C(=O)N6CCOCC6)cc5)c4c3c2)cc1    mTOR    13.84 µM
3  CN(C)Cc1ccc(-c2ccc3ncc4ccc(=O)n(-c5ccc(C(=O)N6CC7CN(C)CC7C6)cc5)c4c3c2)cc1 (stereo not shown)    mTOR    47.05 µM
4  O=C(NCCN1CCNCC1)c1ccc(-n2c(=O)ccc3cnc4ccc(-c5ccc(Cl)cc5)cc4c32)cc1    mTOR    0.994 µM

* * *

Microsomal Stability (rat) T1/2: recorded values
- assay_info: Microsomal stability (rat)
- Type: in vitro ADME
- condition_context: rat microsomes
metric: Microsomal Stability (rat) T1/2

> print(dat)
                                   compound                           metric  test.value
1  Cc1cc(C(=O)NC2CC2)ccc1-n1c(=O)ccc2cnc3ccc(-c4ccc(F)c(O)c4)cc3c21 [Compound 222]  Microsomal Stability (rat) T1/2    27.2 min
2  CN(C)C(=O)c1ccc(-n2c(=O)ccc3c[n+]([O-])c4ccc(-c5ccc(Cl)cc5)cc4c32)cc1 [Compound 208]  Microsomal Stability (rat) T1/2    13.2 min
3  CN(C)C=NS(=O)(=O)c1ccc(-n2c(=O)ccc3cnc4ccc(-c5ccc(Cl)cc5)cc4c32)cc1 [Compound 44]  Microsomal Stability (rat) T1/2     4.6 min
4  O=C(c1ccc(-n2c(=O)ccc3cnc4ccc(-c5ccc(Cl)cc5)cc4c32)cc1)N1C2CCCC1CC2 [Compound 137]  Microsomal Stability (rat) T1/2     1.6 min

* * *

- assay_info: Solubility at pH 7.4
- Assay type: physicochemical
metric: Sol @ pH 7.4 (ug/mL)

> print(dat)
                                   molecule        metric  comparative.sign  test.value
1  CN(C)Cc1ccc(-c2ccc3ncc4ccc(=O)n(-c5ccc(C(=O)N6CC7CN(C)CC7C6)cc5)c4c3c2)cc1 (stereo not shown) [Compound 161]  Sol @ pH 7.4                 >        82.0
2  COc1cc(-c2ccc3ncc4c(c3c2)n(-c2cc(C#N)ccc2C)c(=O)n4C)ccc1F [Compound 409]  Sol @ pH 7.4                 =           0
3  O=C(NCCN1CCC1)c1ccc(-n2c(=O)ccc3cnc4ccc(-c5ccc(Cl)cc5)cc4c32)cc1 [Compound 285]  Sol @ pH 7.4                 =        41.6
4  O=C(c1ccc(-n2c(=O)ccc3c(O)nc4ccc(-c5ccc(Cl)cc5)cc4c32)cc1)N1CCOCC1 [Compound 294]  Sol @ pH 7.4                 =           0
